Source listed as PubChem BioAssay (EPA / NIEHS).

MEASURED_ON: Retinoic acid receptor alpha (Homo sapiens) (UniProt P10276)
Sequence (P10276 whole entry, looked up): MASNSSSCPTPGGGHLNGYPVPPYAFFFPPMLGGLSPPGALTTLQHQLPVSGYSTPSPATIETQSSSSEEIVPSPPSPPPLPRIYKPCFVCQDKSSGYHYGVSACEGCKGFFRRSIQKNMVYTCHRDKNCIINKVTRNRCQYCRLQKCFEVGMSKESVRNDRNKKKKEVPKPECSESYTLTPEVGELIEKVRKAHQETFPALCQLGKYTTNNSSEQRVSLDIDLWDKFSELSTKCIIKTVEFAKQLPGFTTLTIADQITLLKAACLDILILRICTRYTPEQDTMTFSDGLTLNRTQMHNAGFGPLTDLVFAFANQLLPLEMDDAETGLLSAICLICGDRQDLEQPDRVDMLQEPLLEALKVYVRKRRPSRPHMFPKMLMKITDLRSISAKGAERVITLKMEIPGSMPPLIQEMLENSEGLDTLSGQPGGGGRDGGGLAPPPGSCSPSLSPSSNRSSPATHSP
TEST_METHOD_NOTES: ATG_DR5_RAR_CIS: Attagene CIS-FACTORIAL HepG2 Assay for human Retinoic Acid Receptor Alpha (RARE), DR5 submotif (AID 2282934)
CONDITION_DETAILS: HepG2 Attagene cis-factorial RARE DR5 reporter, mRNA; actives raise or lower the signal
The source made the active and inactive calls. How the source made its calls: active means hit-call score of the fitted dose curve at least 0.9, where 1 is the maximum; inactive means score below 0.9.
Answer with one of the outcomes given here: active, inactive

Some solved cases for reference:
COMPOUND | MEASURED_ON | CLASSIFICATION
OC1CCC(C2CCCCC2)CC1 (stereo not drawn) | Retinoic acid receptor alpha (Homo sapiens) (UniProt P10276) | inactive
OCCC(F)(F)C(F)(F)C(F)(F)C(F)(F)C(F)(F)C(F)(F)F | Retinoic acid receptor alpha (Homo sapiens) (UniProt P10276) | inactive
C#C[C@]1(O)CC[C@H]2[C@@H]3CCC4=CC(=O)CC[C@@H]4[C@H]3CC[C@@]21C | Retinoic acid receptor alpha (Homo sapiens) (UniProt P10276) | inactive
CC(O)C(=O)O (stereo not drawn) | Retinoic acid receptor alpha (Homo sapiens) (UniProt P10276) | inactive

# next compound below
Ask | Which result was noted for this compound in the test: CCCCC[C@H](O)CC(=O)CCc1ccc(O)c(OC)c1
Reply | inactive
